- Subject Of Test: UniProt:P08684
- Sequence (P08684 whole entry): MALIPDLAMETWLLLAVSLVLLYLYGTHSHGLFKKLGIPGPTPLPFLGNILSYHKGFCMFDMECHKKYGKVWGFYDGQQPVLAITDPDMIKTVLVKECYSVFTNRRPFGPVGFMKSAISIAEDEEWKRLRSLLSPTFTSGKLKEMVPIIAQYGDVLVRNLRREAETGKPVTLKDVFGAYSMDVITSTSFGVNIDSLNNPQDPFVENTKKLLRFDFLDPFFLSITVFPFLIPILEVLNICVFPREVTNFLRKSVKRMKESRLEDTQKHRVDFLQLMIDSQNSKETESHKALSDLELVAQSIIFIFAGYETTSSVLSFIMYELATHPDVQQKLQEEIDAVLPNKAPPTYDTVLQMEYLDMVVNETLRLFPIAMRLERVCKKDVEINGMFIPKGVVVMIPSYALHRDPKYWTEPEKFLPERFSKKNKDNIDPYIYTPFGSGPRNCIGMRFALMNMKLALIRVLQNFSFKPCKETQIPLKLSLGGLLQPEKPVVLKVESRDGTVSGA
- Experiment Description: CYP450 inhibition CDNA-CYP3A4-BQ
- Setup Conditions: 10 μM test compound, substrate BQ 60 μM, 30 min
Endpoint Name: Cyp450 inhibition: CDNA-CYP3A4-BQ (% inhibition)
Enter the number, and then the unit.

Some compounds with recorded Cyp450 inhibition: CDNA-CYP3A4-BQ (% inhibition):
{"Chemical String": "CCNc1nc2ccc(C(=O)N(CC(C)C)C[C@@H](O)[C@H](Cc3ccccc3)NC(=O)OCc3cncs3)cc2o1", "Result": "80%"}
{"Chemical String": "CC(C)(C)CN(C[C@@H](O)[C@H](Cc1ccccc1)NC(=O)OCc1cncs1)C(=O)c1ccc2nc(N3CCCC3)oc2c1", "Result": "79%"}

Now look at this entry.
Form field: reported Cyp450 inhibition: CDNA-CYP3A4-BQ (% inhibition) of O=C(N[C@@H](Cc1ccccc1)[C@H](O)CN(CCN1CCOCC1)C(=O)c1ccc2nc(N3CCCC3)oc2c1)OCc1cncs1 81%
